Cited source: ChEMBL document CHEMBL1139585

The compounds listed here are annotated with their IC50.
# ASSAY TARGET: Cytochrome P450 2D6 (Homo sapiens, UniProt P10635)
# Sequence (P10635 whole entry): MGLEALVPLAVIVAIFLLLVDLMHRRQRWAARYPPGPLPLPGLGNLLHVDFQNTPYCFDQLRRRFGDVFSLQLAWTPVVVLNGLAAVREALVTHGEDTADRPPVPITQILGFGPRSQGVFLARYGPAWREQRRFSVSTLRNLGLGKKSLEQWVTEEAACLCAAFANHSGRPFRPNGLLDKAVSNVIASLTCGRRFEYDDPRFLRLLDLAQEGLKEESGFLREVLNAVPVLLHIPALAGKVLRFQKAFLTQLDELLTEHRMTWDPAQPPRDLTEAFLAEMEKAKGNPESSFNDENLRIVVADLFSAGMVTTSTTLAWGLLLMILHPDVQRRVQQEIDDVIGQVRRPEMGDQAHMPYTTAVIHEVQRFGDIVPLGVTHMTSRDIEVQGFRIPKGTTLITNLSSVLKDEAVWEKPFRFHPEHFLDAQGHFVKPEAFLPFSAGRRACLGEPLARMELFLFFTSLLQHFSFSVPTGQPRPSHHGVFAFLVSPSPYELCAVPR
# TEST METHOD NOTES: Inhibitory activity against recombinant human Cytochrome P450 2D6 (CYP2D6) after incubated for 45 minutes
VALUE KIND: IC50 (µM)

| COMPOUND | VALUE KIND | UNIT INFO | VAL |
| --- | --- | --- | --- |
| CC(C)(Cc1csc2ccccc12)NCC(O)COc1ccccc1C#N (centres undefined) | IC50 | µM | 0.05 |
| CC(C)(Cc1c[nH]c2ccccc12)NCC(O)COc1c(C#N)ccc2ccccc12 (centres undefined) | IC50 | µM | 0.05 |
| C=CCOc1ccc(OCC(O)CNC(C)C)cc1 (centres undefined) | IC50 | µM | 21 |
| CC(C)NC[C@@H](O)COc1ccc(-c2ccccc2)c2ccccc12 | IC50 | µM | 21 |

* * *

# ASSAY TARGET: Cytochrome P450 2D6 (Homo sapiens, UniProt P10635)
# TEST METHOD NOTES: Inhibitory activity against recombinant human Cytochrome P450 2D6 (CYP2D6) after incubated for 45 minutes
pIC50: −log10 of the molar value.
Decision: pIC50 >= 5 yields MET, all other cases yield NOT MET.

| MOLECULE | ASSAY TARGET | ASSIGNED CATEGORY |
| --- | --- | --- |
| CC(C)NCC(O)COc1ccccc1 (configuration not stated) | Cytochrome P450 2D6 (Homo sapiens, UniProt P10635) | NOT MET |
| COc1ccc2c(CC(C)(C)NCC(O)COc3ccccc3C#N)c[nH]c2c1 (configuration not stated) | Cytochrome P450 2D6 (Homo sapiens, UniProt P10635) | MET |
| CC(C)N[C@@H](C)C(O)COc1cccc2ccccc12 (some centres not stated) | Cytochrome P450 2D6 (Homo sapiens, UniProt P10635) | MET |
| CC(C)(C)NCC(O)COc1ccccc1 (configuration not stated) | Cytochrome P450 2D6 (Homo sapiens, UniProt P10635) | NOT MET |
| CCc1ccccc1OCC(O)CNC(C)(C)Cc1cc2ccccc2[nH]1 (configuration not stated) | Cytochrome P450 2D6 (Homo sapiens, UniProt P10635) | MET |
| CC(C)NCC(O)COc1ccc(CCOCC2CC2)cc1 (configuration not stated) | Cytochrome P450 2D6 (Homo sapiens, UniProt P10635) | NOT MET |
| Cc1ccccc1OCC(O)CNC(C)(C)Cc1cc2ccccc2n1C (configuration not stated) | Cytochrome P450 2D6 (Homo sapiens, UniProt P10635) | MET |
| CCc1cccc2cc(CC(O)CNC(C)(C)C)oc12 (configuration not stated) | Cytochrome P450 2D6 (Homo sapiens, UniProt P10635) | MET |
| CC(C)(Cc1c[nH]c2ccc(O)cc12)NCC(O)COc1ccccc1C#N (configuration not stated) | Cytochrome P450 2D6 (Homo sapiens, UniProt P10635) | MET |
| COCCc1ccc(OCC(O)CNC(C)(C)CSc2ccccc2C)cc1 (configuration not stated) | Cytochrome P450 2D6 (Homo sapiens, UniProt P10635) | MET |
| COc1ccc2[nH]cc(CC(C)(C)NCC(O)COc3ccccc3C#N)c2c1 (configuration not stated) | Cytochrome P450 2D6 (Homo sapiens, UniProt P10635) | MET |
